molecular target: α1β1γ2 GABAA receptor (Homo sapiens, UniProt P14867+P18505); test: FLIPR modulation of GABA response in cells expressing GABAA receptor subtype; conditions: in presence of GABA, — = value not measurable
Sequence (P14867 28-456): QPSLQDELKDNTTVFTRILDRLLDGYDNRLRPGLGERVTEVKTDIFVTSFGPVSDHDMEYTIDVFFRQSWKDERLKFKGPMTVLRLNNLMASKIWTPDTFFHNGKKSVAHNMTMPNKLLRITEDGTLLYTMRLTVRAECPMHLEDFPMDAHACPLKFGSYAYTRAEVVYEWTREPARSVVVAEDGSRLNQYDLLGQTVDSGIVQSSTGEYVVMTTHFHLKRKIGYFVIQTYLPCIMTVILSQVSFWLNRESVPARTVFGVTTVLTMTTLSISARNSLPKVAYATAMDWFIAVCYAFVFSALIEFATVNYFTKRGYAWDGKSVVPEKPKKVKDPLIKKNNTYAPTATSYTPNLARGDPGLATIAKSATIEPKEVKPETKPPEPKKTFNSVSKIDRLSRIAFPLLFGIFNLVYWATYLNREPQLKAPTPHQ
Sequence (P18505 26-474): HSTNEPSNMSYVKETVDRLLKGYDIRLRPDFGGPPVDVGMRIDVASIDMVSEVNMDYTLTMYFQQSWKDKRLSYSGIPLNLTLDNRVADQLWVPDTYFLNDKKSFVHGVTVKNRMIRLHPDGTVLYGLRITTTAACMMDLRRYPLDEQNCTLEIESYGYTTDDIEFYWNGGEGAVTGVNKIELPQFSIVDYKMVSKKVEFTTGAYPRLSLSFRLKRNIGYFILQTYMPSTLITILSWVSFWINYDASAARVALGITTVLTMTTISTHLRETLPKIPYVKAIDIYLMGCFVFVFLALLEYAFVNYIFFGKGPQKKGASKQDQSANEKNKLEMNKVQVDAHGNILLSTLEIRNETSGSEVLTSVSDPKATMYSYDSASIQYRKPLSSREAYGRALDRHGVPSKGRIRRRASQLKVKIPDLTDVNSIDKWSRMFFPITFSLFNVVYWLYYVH
Sequence (P18507 40-475 partner): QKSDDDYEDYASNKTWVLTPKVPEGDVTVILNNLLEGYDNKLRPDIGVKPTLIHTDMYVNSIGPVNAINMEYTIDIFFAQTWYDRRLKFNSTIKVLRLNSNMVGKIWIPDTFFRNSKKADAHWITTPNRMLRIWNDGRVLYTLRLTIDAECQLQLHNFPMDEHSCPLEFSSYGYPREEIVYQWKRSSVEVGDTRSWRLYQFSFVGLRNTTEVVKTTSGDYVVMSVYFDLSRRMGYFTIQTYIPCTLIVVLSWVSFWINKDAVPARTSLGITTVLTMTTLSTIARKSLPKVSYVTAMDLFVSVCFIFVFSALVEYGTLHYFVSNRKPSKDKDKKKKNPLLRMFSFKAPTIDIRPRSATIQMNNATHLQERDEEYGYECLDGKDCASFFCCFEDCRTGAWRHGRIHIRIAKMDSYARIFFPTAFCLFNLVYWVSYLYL
pEC50: −log10 of the molar value.

{"molecular.string": "C[C@@]1(O)CC[C@@]2(C)[C@@H](CC[C@@H]3[C@@H]2CC[C@]2(C)[C@@H](C(=O)Cn4cc(C#N)cn4)CC[C@@H]32)C1", "pEC50": 6.28}

###

Target: α2β2γ2 GABAA receptor (Homo sapiens, UniProt P47869+P47870)
Sequence (P47869 29-451): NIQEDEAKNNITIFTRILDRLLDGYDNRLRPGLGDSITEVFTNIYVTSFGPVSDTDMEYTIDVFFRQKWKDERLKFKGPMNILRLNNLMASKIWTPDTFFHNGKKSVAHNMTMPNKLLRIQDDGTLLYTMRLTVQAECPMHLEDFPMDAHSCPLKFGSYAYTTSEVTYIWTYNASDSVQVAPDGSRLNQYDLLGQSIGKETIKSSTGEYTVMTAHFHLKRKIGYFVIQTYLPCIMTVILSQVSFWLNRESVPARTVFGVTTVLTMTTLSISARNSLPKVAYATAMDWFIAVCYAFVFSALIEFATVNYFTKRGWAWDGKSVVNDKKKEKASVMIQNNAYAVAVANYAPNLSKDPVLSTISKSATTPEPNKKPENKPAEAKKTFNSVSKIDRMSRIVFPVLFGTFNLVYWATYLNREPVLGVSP
Sequence (P47870 25-512 limits assumed): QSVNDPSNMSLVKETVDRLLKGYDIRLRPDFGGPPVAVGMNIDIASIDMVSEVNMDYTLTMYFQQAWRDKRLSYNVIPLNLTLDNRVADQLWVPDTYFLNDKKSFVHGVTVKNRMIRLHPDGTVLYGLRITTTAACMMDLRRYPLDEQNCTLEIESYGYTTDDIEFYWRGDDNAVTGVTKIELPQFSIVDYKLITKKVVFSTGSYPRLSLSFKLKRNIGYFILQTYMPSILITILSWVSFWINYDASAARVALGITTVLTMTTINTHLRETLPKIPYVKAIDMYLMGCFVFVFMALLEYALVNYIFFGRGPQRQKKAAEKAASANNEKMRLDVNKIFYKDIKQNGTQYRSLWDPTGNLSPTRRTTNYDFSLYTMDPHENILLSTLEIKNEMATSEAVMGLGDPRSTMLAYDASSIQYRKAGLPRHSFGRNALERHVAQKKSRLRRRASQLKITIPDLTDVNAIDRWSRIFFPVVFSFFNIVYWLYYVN
Sequence (P18507 40-475 partner): as the sequence (P18507 40-475 partner) above
Assay: FLIPR modulation of GABA response in cells expressing GABAA receptor subtype
Details: in presence of GABA, — = value not measurable
Protocol: Cells expressing the indicated GABAA receptor subtype were exposed to gamma-aminobutyric acid in the presence of varying concentrations of either CV-10155 or SPNC-019, calcium flux was measured using a fluorometric imaging plate reader (FLIPR), and EC50 values for compounds were determined.
measurement.type: EC50 (µM)

{"molecule": "C[C@@]1(O)CC[C@@]2(C)[C@@H](CC[C@@H]3[C@@H]2CC[C@]2(C)[C@@H](C(=O)Cn4cc(C#N)cn4)CC[C@@H]32)C1 [CV-10155]", "recorded.result": 0.213}
